# assay_summary: Nuclear factor erythroid 2-related factor 2/antioxidant responsive element (Nrf2/ARE) small molecule agonists: qHTS cell viability counter screen in human keratinocytes (AID 1919968); also: nearly all actives have a fitted effect of over 55% in size
# experimental_context: KeratinoSens HaCaT ARE cells viability, CellTiter-Fluor, 24 h; series mostly up to 92.4 µM
# Description: U.S. Tox21 Program National Center for Advancing Translational Sciences [NCATS] Division of Preclinical Innovation [DPI] U.S. Environmental Protection Agency [EPA] National Institutes of Environmental Health Sciences [NIEHS] National Toxicology Program [NTP] U.S. Food and Drug Administration [FDA] […] The activation of the report gene under culture conditions can be detected by ONE-Glo Luciferase Assay System (Promega, Madison, WI). […]
Results filed as inconclusive are left out. Calls of active or inactive are those of the source. Calls follow the shape of the dose curve; as a rule, active = well fitted cell-killing curve with a large enough effect in the repeat runs; inconclusive = weak or mixed curves, or effect the other way; inactive = flat fitted curve, though single readings scatter.
Output constraint: value belongs to active, inactive

# count of solved cases: 5
molecule	label
[Hg+2].[I-].[I-]	active
N#CC(C#N)=Cc1ccc(O)c(O)c1	inactive
COP(=S)(OC)Oc1c(Cl)cc(C)cc1Cl	inactive
CNC(=O)O/N=C(\C)C(C)S(C)(=O)=O (centres undefined)	inactive
CC(C)(C)NCC(O)c1cc(Cl)c(N)c(C(F)(F)F)c1 (centres undefined)	inactive

Identify the outcome logged in this assay for the molecule shown: CCC(COC(=O)c1cc(OC)c(OC)c(OC)c1)(c1ccccc1)N(C)C (centres undefined) inactive

What do we get for CC(Cl)(Cl)Cl ? inactive

Further, for CSc1ccc(C(=O)C(C)(C)N2CCOCC2)cc1 ? inactive

// repeat for COc1ccc(C=O)cc1O and report inactive

Entry CCCCP(CCCC)CCCC please inactive
